The reported numbers originate from patent US20130217572A1.

Please provide measured absorbance at 405 nm for the entries that follow.
Tested on: gum arabic
ASSAY_TEXT: VHH binding to gum arabic in ELISA
Parameters: species or system acacia tree
ASSAY_SETUP: [VHH] 0.75 μg/ml (50 nM); gum arabic 100 μg/ml

Per the record, VHH 3E6 (VHH, also called Monovalent VHH 3E6) VHH: QVQLQESGGGLVQPGGTLSLSCAASGFNVRWYGMGWFRQAPGKEREGVACISALQETTAYADSVKGRFTLSRDNPKNTLSLQMNNLQPEDTGVYYCATTDCDDSSRMTYTSYLGQGTQVTVSS has absorbance at 405 nm of 1.904

***
Per the record, VHH 5G5 (VHH, Hexahistidine-tagged) VHH: QVQLQESGGGLVQPGGSLRLSCAASGFSLRYFGIGWFRQAAGKEREGISCSNVRDGNTYYADSVKGRFTISRDNVRNMLYLQMNNLKPDDTAVYSCATTDCEATTWGTYRGYFGQGTQVTVSS has absorbance at 405 nm of 1.611
